- targetSystem: Atrial natriuretic peptide receptor 1 (Homo sapiens)
- procedureDetails: Natriuretic polypeptide receptor (hNpr1) antagonism - Primary qHTS; further: nearly all actives have a fitted effect of over 60% in size
- assayConditions: HEK293 hNpr1 GloSensor cGMP, ANP-stimulated luminescence; series mostly up to 70.6 µM
Out of some 76,000 compounds screened, about 1,200 (1.6%) were called active. Another 4% or so got no clear call; they are omitted. The call rests on the fitted dose curve. What follows is part of a selection rich in actives, with near analogues and random picks from the rest.
Outcome codes: y (active), n (inactive)

[[record]]
compound = "COc1ccc(C(=O)N2[C@H]3CC[C@@H]2c2cnc(-c4ccccc4)nc2C3)c(OC)c1"
assignedlabel = "n"

[[record]]
compound = "COc1cc2c(cc1OCc1ccccc1)NC(=O)C21CCN(CCC(C)C)CC1"
assignedlabel = "n"

[[record]]
compound = "COc1cc2c(cc1Oc1ccccc1)NC(=O)C21CCN(c2ccnc(C)n2)CC1"
assignedlabel = "n"

[[record]]
compound = "Cc1nc(-c2ccccc2)cc([C@H]2CN3CC[C@H]2C[C@@H]3CNC2CCOCC2)n1"
assignedlabel = "n"

[[record]]
compound = "CCCS(=O)(=O)NC[C@H]1C[C@@H]2CCN1C[C@@H]2c1cc(-c2ccccc2)nc(C)n1"
assignedlabel = "n"

[[record]]
compound = "CCC(CC)c1cc([C@H]2CN3CC[C@H]2C[C@@H]3CNS(=O)(=O)c2ccccc2C#N)nc(-c2ccncc2)n1"
assignedlabel = "n"

[[record]]
compound = "COc1cc2c(cc1OCc1ccncc1)NC(=O)C21CCN(c2ncccn2)CC1"
assignedlabel = "n"

[[record]]
compound = "O=C(NCc1ccccc1)[C@H]1CN2CCC1C[C@@H]2Cn1cc(-c2ccc(F)cc2)nn1 (some centres undefined)"
assignedlabel = "n"

[[record]]
compound = "COc1cc2c(cc1Oc1cccc(N(C)C)c1)NC(=O)C21CCN(Cc2ccccn2)CC1"
assignedlabel = "y"

